Items are presented alongside their recorded z-score.
# PROTOCOL_SUMMARY: A549 lung cancer cell viability effects, profiling panel, resazurin fluorescence, 24 h, PK04 Diversity Set (AID 1171); also: test concentration not given here
# DETAILS: higher = more signal, called active from +8 up or from −8 down
MEASURED_ENDPOINT: z-score

COMPOUND	MEASURED_ENDPOINT	OBSERVED
[N-]=[N+]=NCc1ccccc1[C@H]1OC(c2ccc(OCCCO)cc2)=N[C@@]1(Cc1ccccc1N=[N+]=[N-])C(N)=O	z-score	0.85
O=C(N1CCOCC1)[C@]1(CCS(=O)(=O)c2ccccc2)N=C(c2ccc(OCCCO)cc2)O[C@@H]1c1ccccc1	z-score	0.54
CC1(C)OB(/C=C\CC(OC(=O)c2ccncc2)c2ccccc2)OC1(C)C (stereo unspecified)	z-score	0.0383
C=C[C@@H](CO)NS(=O)(=O)c1ccc(Br)cc1	z-score	2.35
CCCCCCc1nc(-c2ccc(OC)nc2)c(C)c2c1[Si](C(C)C)(C(C)C)OC2	z-score	0.863
Cc1c(NC(=O)/C(C#N)=C/C=C/c2ccc([N+](=O)[O-])cc2)c(=O)n(-c2ccccc2)n1C	z-score	0.0981
COC(=O)C1=CC(CCCO)=CC(c2ccc(CN3CCCC3)cc2)N(C)C=C1C(=O)OC (stereo unspecified)	z-score	-0.632
CCCCCN1CC=CC23O[C@@H]4/C=C\CCCOC(=O)C4[C@H]2C(=O)N(CCO)[C@@H]3C1=O (stereo partly specified)	z-score	-0.231
COC(=O)[C@H]1N=C(c2ccc(OCCCO)cc2)O[C@H]1c1ccccc1N=[N+]=[N-]	z-score	-0.15
COCCCNC(=O)[C@@]1(CCC(=O)OC(C)(C)C)N=C(c2ccc(OCCCO)cc2)O[C@H]1c1ccccc1	z-score	-0.376
COc1ccc(C(=O)Nc2ccc(CN3C(=O)[C@]4(O[C@H](CC(=O)N(CCO)Cc5ccccc5)[C@@H]([Si](C)(C)c5ccc(OC)cc5)[C@@H]4C)c4ccccc43)cc2)cc1	z-score	-2.04
O=C1O[C@H](c2ccccc2)[C@H](c2ccccc2)N2[C@H]1[C@@H](C(=O)O)[C@]1(C(=O)Nc3ccccc31)[C@H]2c1ccc(OCCO)cc1	z-score	0.683
COc1ccc([Si](C)(C)[C@H]2[C@H](CCO)O[C@@]3(C(=O)N(Cc4ccccc4)c4ccc(NC(=O)[C@H](C)O)cc43)[C@@H]2C)cc1	z-score	-3.18
OCCCc1cc[n+](Cc2cc3c(cc2Br)OCO3)cc1	z-score	-0.298
C=C(/C=C\CNS(=O)(=O)c1ccc(C)cc1)[C@H](O)[C@H]1CCCN1S(=O)(=O)c1ccccc1[N+](=O)[O-]	z-score	0.0403
CN(C)CCCC[C@@H]1NC(=O)[C@H]2C[C@@H](C(=O)NCCCCCCNC(=O)CS)[C@@H](c3cccc(OCCO)c3)N2C1=O	z-score	0.0246
CCCCCN1CC=CC23O[C@@H]4/C=C\CCCOC(=O)C4[C@H]2C(=O)N(CCCCCO)[C@@H]3C1=O (stereo partly specified)	z-score	0.844
C=C[C@H](C)[C@@H](OC(=O)Nc1ccc(SC)cc1)c1ccc(OCCO)cc1	z-score	-0.505
C[C@]12C(=O)N(CCO)[C@@H]3C(=O)N(c4ccc(Cl)cc4)CC=CC31O[C@@H]1/C=C\CCCOC(=O)C12 (stereo partly specified)	z-score	-1.3
CC(C)C[C@H]1NC(=O)CNC(=O)[C@@]23C(=O)N[C@@H](Cc4ccccc4)C2[C@H](C)[C@@]2(C)O[C@H]2C3/C=C/C/C=C\CNC1=O (stereo partly specified)	z-score	0.478
O=C1C2C=CC(C(O)C3CCCCC3)N(Nc3ccccc3F)C2C(=O)N1c1ccccc1 (stereo unspecified)	z-score	-0.852
C=CC[C@H](O)c1ccc(O)c2ccccc12	z-score	-0.409
C=CC[C@H](OC(=O)Nc1ccc(SC)cc1)c1ccc(O)c(F)c1	z-score	-1.01
COC(=O)[C@H](Cc1ccccc1)N1CC(C)(OC)O[C@@H](Cc2ccccc2)[C@H]1/C=C/C1CC1 (stereo partly specified)	z-score	0.379
COCCOC(=O)N1C(=O)[C@@]2(c3cc(C#CCCO)ccc31)[C@H](c1ccc(O)cc1)N1[C@H](c3ccccc3)[C@H](c3ccccc3)OC(=O)[C@H]1[C@@H]2C(=O)NC[C@H](O)c1ccccc1	z-score	0.908
COC(=O)[C@@]1(Cc2ccc(F)cc2)[C@H]2c3cc(C(=O)N4CCCC4)n(CCc4c[nH]c5cc(F)ccc45)c3C[C@H]2CN1C(=O)c1ccccc1	z-score	0.339
CC[C@H]1C2=C3C(CC[C@H]4C(OCc5ccc(F)cc5C(F)(F)F)OC[C@](C)([C@@H]34)N(C(=O)OC(C)(C)C)C2)C(COC(C)=O)C1COC(C)=O (stereo partly specified)	z-score	0.226
C=CCNC(=O)[C@H]1[C@@H]2C(=O)O[C@@H](c3ccccc3)[C@@H](c3ccccc3)N2[C@@H](c2ccc(O)cc2)[C@]12C(=O)N(C(=O)OCCOC)c1ccc(C#Cc3ccc(OC)cc3)cc12	z-score	-0.0733
CC1CC/C=C\[C@H]2OC34C=CCN(C(C)C)C(=O)[C@H]3N(C(C)CO)C(=O)[C@@H]4C2C(=O)O1 (stereo partly specified)	z-score	0.574
COCCCNC(=O)[C@@]1(Cc2ccccc2I)c2ccccc2C(=O)N(C2CCCCC2)[C@H]1c1ccc(CO)cc1	z-score	1.59
CCCCC(=C=CC[C@@H](O)c1ccc(OCCO)cc1)CCO	z-score	1.46
